experiment: Aqueous solubility (pH 7, phosphate buffer); format: physicochemical
Consider the following compounds; for each one, report its solubility.
Note: unit µg/mL is implicit; provide only the numeric part.

Specify reported solubility for the compound shown: CC(=O)NC[C@H]1CN(c2cc(F)c(N3CCN(C(=O)COC(=O)c4ccc(N(C)C)cc4)CC3)c(F)c2)C(=O)O1 [Example 8] 10

Specify reported solubility for the compound shown: CC(=O)NC[C@H]1CN(c2cc(F)c(N3CCN(C(=O)COC(=O)CCC(=O)O)CC3)c(F)c2)C(=O)O1 [Example 15] 12300

Specify reported solubility for the compound shown: CC(=O)NC[C@H]1CN(c2ccc(N3CCN(C(=O)COC(=O)CN(C)C)CC3)c(F)c2)C(=O)O1 [Example 9] 150000

Specify reported solubility for the compound shown: CC(=O)NC[C@H]1CN(c2ccc(N3CCN(C(=O)COC(=O)CN4CCOCC4)CC3)c(F)c2)C(=O)O1 [Example 27] 55300

Specify reported solubility for the compound shown: CC(=O)NC[C@H]1CN(c2ccc(N3CCN(C(=O)COC(=O)CCN4CCOCC4)CC3)c(F)c2)C(=O)O1 [Example 1] 36000

Specify reported solubility for the compound shown: CC(=O)NC[C@H]1CN(c2ccc(N3CCN(C(=O)COP(=O)(O)O)CC3)c(F)c2)C(=O)O1 [Example 20] 25700

Specify reported solubility for the compound shown: CC(=O)NC[C@H]1CN(c2ccc(N3CCN(C(=O)COC(=O)c4ccc(NC(=O)CN(C)C)cc4)CC3)c(F)c2)C(=O)O1 [Example 28] 90

Specify reported solubility for the compound shown: CC(=O)NC[C@H]1CN(c2cc(F)c(N3CCN(C(=O)COC(=O)CN(C)C)CC3)c(F)c2)C(=O)O1 [Example 10] 4200

Specify reported solubility for the compound shown: CC(=O)NC[C@H]1CN(c2ccc(N3CCN(C(=O)COC(=O)C(C)(CO)CO)CC3)c(F)c2)C(=O)O1 [Example 22] 13000

Specify reported solubility for the compound shown: CC(=O)NC[C@H]1CN(c2cc(F)c(N3CCN(C(=O)COC(=O)CCN4CCOCC4)CC3)c(F)c2)C(=O)O1 [Example 26] 8200

Specify reported solubility for the compound shown: CC(=O)NC[C@H]1CN(c2ccc(N3CCN(C(=O)COC(=O)c4cccnc4)CC3)c(F)c2)C(=O)O1 [Example 2] 300

Specify reported solubility for the compound shown: CC(=O)NC[C@H]1CN(c2cc(F)c(N3CCN(C(=O)COC(=O)c4cccnc4)CC3)c(F)c2)C(=O)O1 [Example 3] 50

Specify reported solubility for the compound shown: CC(=O)NC[C@H]1CN(c2ccc(N3CCN(C(=O)COC(=O)CCCN(C)C)CC3)c(F)c2)C(=O)O1 [Example 12] 34600

Specify reported solubility for the compound shown: COCC(=O)OCC(=O)N1CCN(c2ccc(N3C[C@H](CNC(C)=O)OC3=O)cc2F)CC1 [Example 25] 6400

Specify reported solubility for the compound shown: CC(=O)CCC(=O)OCC(=O)N1CCN(c2ccc(N3C[C@H](CNC(C)=O)OC3=O)cc2F)CC1 [Example 19] 2290

Specify reported solubility for the compound shown: CC(=O)NC[C@H]1CN(c2ccc(N3CCN(C(=O)COC(=O)CO)CC3)c(F)c2)C(=O)O1 [Example 23] 4200

Specify reported solubility for the compound shown: CC(=O)NC[C@H]1CN(c2ccc(N3CCN(C(=O)COC(=O)c4ccc(NC(=O)CN)cc4)CC3)c(F)c2)C(=O)O1 [Example 29] 9800

Specify reported solubility for the compound shown: CC(=O)CCC(=O)OCC(=O)N1CCN(c2c(F)cc(N3C[C@H](CNC(C)=O)OC3=O)cc2F)CC1 [Example 18] 1200

Specify reported solubility for the compound shown: CC(=O)NC[C@H]1CN(c2ccc(N3CCN(C(=O)COC(=O)c4ccc(N(C)C)cc4)CC3)c(F)c2)C(=O)O1 [Example 7] 10

Specify reported solubility for the compound shown: CC(=O)NC[C@H]1CN(c2cc(F)c(N3CCN(C(=O)COC(C)=O)CC3)c(F)c2)C(=O)O1 [Example 14] 1600

Specify reported solubility for the compound shown: CC(=O)NC[C@H]1CN(c2ccc(N3CCN(C(=O)COC(=O)CN4CCN(C)CC4)CC3)c(F)c2)C(=O)O1 [Example 13] 79100

Specify reported solubility for the compound shown: CC(=O)NC[C@H]1CN(c2ccc(N3CCN(C(=O)COC(=O)c4ccc(N)cc4)CC3)c(F)c2)C(=O)O1 [Example 21] 30

Specify reported solubility for the compound shown: CC(=O)NC[C@H]1CN(c2ccc(N3CCN(C(=O)COC(=O)CCC(=O)O)CC3)c(F)c2)C(=O)O1 [Example 17] 28000

Specify reported solubility for the compound shown: COCCOC(=O)OCC(=O)N1CCN(c2ccc(N3C[C@H](CNC(C)=O)OC3=O)cc2F)CC1 [Example 6] 2900

Specify reported solubility for the compound shown: CC(=O)NC[C@H]1CN(c2ccc(N3CCN(C(=O)COC(=O)n4ccnc4)CC3)c(F)c2)C(=O)O1 [Example 4] 1400
